biological target: CDK9/CycT1 (Homo sapiens, UniProt P50750); construct: Recombinant full-length His-tagged human CDK9 and CycT1, expressed in insect cells; His; experiment: CDK9/CycT1 high ATP kinase assay (TR-FRET, 2 mM ATP); conditions: read-out: CDK9/CyclinT1, 2 mM ATP (high ATP) IC50-[mol/l] (median)
Sequence (P50750 whole entry): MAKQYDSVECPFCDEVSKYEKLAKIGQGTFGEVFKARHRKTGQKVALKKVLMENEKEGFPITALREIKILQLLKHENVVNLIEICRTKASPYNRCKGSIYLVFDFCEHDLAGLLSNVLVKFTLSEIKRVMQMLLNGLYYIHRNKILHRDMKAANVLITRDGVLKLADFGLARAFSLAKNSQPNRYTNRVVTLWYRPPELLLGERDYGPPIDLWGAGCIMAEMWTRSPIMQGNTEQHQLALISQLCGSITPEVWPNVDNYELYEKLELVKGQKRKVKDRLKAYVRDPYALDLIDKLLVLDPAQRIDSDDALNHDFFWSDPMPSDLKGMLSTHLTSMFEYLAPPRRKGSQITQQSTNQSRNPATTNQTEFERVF
Sequence (O60563 whole entry partner): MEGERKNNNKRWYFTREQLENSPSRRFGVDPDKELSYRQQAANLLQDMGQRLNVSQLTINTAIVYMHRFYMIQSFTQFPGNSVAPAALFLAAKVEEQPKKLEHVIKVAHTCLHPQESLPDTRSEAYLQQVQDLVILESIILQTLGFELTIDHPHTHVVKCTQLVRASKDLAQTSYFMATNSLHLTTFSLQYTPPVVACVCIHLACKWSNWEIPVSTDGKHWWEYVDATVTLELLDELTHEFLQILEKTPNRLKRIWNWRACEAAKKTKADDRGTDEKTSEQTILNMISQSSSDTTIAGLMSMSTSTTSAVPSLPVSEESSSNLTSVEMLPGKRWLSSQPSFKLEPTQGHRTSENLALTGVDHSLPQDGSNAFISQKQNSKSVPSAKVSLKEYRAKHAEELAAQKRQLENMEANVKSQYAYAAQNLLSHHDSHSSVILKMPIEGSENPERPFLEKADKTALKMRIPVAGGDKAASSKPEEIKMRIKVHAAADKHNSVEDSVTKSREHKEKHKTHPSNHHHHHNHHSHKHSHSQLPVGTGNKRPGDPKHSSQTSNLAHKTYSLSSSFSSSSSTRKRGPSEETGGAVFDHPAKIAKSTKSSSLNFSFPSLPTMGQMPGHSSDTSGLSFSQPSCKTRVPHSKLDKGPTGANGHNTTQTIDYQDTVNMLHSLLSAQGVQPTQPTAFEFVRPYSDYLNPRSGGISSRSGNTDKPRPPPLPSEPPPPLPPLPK
pIC50: −log10 of the molar value.
experimental endpoint: pIC50

Exercise: I would be grateful if you could share the reported pIC50 for `COc1cccc2[nH]c(CNc3nc(N4C[C@@H](C)N[C@@H](C)C4)nn4c(Br)cnc34)nc12` .
Solution: < 4.74

Exercise: I would be grateful if you could share the reported pIC50 for `C[C@@H]1CN(c2nc(NCc3nc4cc(F)ccc4[nH]3)c3ncc(Br)n3n2)C[C@H](C)N1` .
Solution: < 4.70

Exercise: I would be grateful if you could share the reported pIC50 for `Fc1ccc2[nH]c(CNc3nc(N4CCOCC4)nn4c(C(F)(F)F)cnc34)nc2c1F` .
Solution: 5.17

Exercise: I would be grateful if you could share the reported pIC50 for `Brc1cnc2c(NCc3nc4ccccc4[nH]3)nc(N3CCOCC3)nn12` .
Solution: < 4.70

Exercise: I would be grateful if you could share the reported pIC50 for `Fc1cccc2[nH]c(CNc3nc(N4CCOCC4)nn4c(Br)cnc34)nc12` .
Solution: < 4.70

Exercise: I would be grateful if you could share the reported pIC50 for `CN1CCN(c2nc(NCc3nc4c(F)cccc4[nH]3)c3ncc(Br)n3n2)CC1` .
Solution: < 4.70

Exercise: I would be grateful if you could share the reported pIC50 for `CN1CCN(c2nc(NCc3nc4cc(F)ccc4[nH]3)c3ncc(Br)n3n2)CC1` .
Solution: < 4.70

Exercise: I would be grateful if you could share the reported pIC50 for `C[C@@H]1CN(c2nc(NCc3nc4ccccc4[nH]3)c3ncc(Br)n3n2)C[C@H](C)O1` .
Solution: 4.75

Exercise: I would be grateful if you could share the reported pIC50 for `Fc1ccc2[nH]c(CNc3nc(N4CCOCC4)nn4c(Br)cnc34)nc2c1` .
Solution: < 4.70

Exercise: I would be grateful if you could share the reported pIC50 for `C[C@@H]1CN(c2nc(NCc3nc4c(F)c(F)ccc4[nH]3)c3ncc(Br)n3n2)C[C@H](C)N1` .
Solution: 4.97

Exercise: I would be grateful if you could share the reported pIC50 for `C[C@@H]1CN(c2nc(NCc3nc4ccccc4[nH]3)c3ncc(C(F)(F)F)n3n2)C[C@H](C)N1.O=CO` .
Solution: < 4.70

Exercise: I would be grateful if you could share the reported pIC50 for `CN1CCN(c2nc(NCc3nc4c(F)c(F)ccc4[nH]3)c3ncc(C(F)(F)F)n3n2)CC1` .
Solution: < 4.70

Exercise: I would be grateful if you could share the reported pIC50 for `C[C@@H]1CN(c2nc(NCc3nc4c(F)c(F)ccc4[nH]3)c3ncc(Br)n3n2)C[C@H](C)O1` .
Solution: 5.46

Exercise: I would be grateful if you could share the reported pIC50 for `COc1cccc2[nH]c(CNc3nc(N4CCN(C)CC4)nn4c(Br)cnc34)nc12.O=CO` .
Solution: < 4.70

Exercise: I would be grateful if you could share the reported pIC50 for `COc1cccc2[nH]c(CNc3nc(N4CCNCC4)nn4c(Br)cnc34)nc12` .
Solution: < 4.70

Exercise: I would be grateful if you could share the reported pIC50 for `CN1CCN(c2nc(NCc3nc4ccccc4[nH]3)c3ncc(C(F)(F)F)n3n2)CC1` .
Solution: < 4.70

Exercise: I would be grateful if you could share the reported pIC50 for `Fc1cccc(-c2cnc3c(NCc4nc5ccccc5[nH]4)nc(N4CCOCC4)nn23)c1` .
Solution: < 4.70

Exercise: I would be grateful if you could share the reported pIC50 for `Fc1cccc2[nH]c(CNc3nc(N4CCNCC4)nn4c(Br)cnc34)nc12` .
Solution: < 4.71

Exercise: I would be grateful if you could share the reported pIC50 for `COc1cccc2[nH]c(CNc3nc(N4CCOCC4)nn4c(Br)cnc34)nc12` .
Solution: < 4.72

Exercise: I would be grateful if you could share the reported pIC50 for `Fc1ccc2[nH]c(CNc3nc(N4CCNCC4)nn4c(Br)cnc34)nc2c1F` .
Solution: 4.91

Exercise: I would be grateful if you could share the reported pIC50 for `Brc1cnc2c(NCc3nc4ccccc4[nH]3)nc(N3CCNCC3)nn12` .
Solution: < 4.70

Exercise: I would be grateful if you could share the reported pIC50 for `C[C@@H]1CN(c2nc(NCc3nc4c(F)cccc4[nH]3)c3ncc(Br)n3n2)C[C@H](C)N1` .
Solution: 4.85
